Sourced from paper PMC12881670

Provide the recorded EC50 for the entries that follow.
# SYSTEM NAME: Mm_Fpr1 (Mus musculus, UniProt P33766)
# Construct: expressed in transfected cells
# Sequence (P33766 1-364): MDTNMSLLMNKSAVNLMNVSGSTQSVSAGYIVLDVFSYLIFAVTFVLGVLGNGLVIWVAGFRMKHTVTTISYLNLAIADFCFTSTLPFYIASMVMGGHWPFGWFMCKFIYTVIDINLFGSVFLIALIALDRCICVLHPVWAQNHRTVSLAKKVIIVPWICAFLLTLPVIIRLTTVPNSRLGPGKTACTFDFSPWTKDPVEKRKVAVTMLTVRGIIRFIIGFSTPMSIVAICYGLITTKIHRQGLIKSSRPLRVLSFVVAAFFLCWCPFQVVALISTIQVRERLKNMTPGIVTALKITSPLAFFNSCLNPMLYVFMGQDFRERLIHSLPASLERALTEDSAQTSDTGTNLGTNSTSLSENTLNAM
# METHOD: ERK1/2 phosphorylation by Western blotting
# Format: cell-based
# CONDITION SET: log of EC50; phosphorylation of ERK1/2, HEK293 stable cells; mean; ND = no pERK signal detected
# Protocol: ERK phosphorylation was detected by Western blotting as previously described.[30] Briefly, HEK293 cells stably expressing FLAG-tagged FPRs were plated into 12-well culture plates until 90% confluent. […] All data were analyzed using GraphPad Prism using the nonlinear regression log(agonist) versus response (3 parameters) function for all assays, except binding, which was analyzed using the One site-FitlogIC50 function. […]
Where a SMILES comes first, the peptide text is derived from it. The star is where a group is joined. For = O=C*
The response must be a number in nM with no trailing unit.

molecule `CSCC[C@H](NC=O)C(=O)N[C@@H](CC(C)C)C(=O)N[C@@H](Cc1ccccc1)C(=O)O` , EC50 observed: 2270

# molecule `COc1cc(F)c([C@@H]2CNC(=O)[C@H]2NC(=O)Nc2ccccc2)c(F)c1` ; its EC50 = 982

Record summary for CSCC[C@H](NC=O)C(=O)N[C@@H](CC(C)C)C(=O)N[C@@H](Cc1ccccc1)C(=O)N[C@@H](CCCCN)C(=O)O [fMLFK, fMet-Leu-Phe-Lys] (For-MLFK-OH) : reported EC50 = 851
